testedSystem: T1, human GLP-1 receptor (human), P43220
T1 chain: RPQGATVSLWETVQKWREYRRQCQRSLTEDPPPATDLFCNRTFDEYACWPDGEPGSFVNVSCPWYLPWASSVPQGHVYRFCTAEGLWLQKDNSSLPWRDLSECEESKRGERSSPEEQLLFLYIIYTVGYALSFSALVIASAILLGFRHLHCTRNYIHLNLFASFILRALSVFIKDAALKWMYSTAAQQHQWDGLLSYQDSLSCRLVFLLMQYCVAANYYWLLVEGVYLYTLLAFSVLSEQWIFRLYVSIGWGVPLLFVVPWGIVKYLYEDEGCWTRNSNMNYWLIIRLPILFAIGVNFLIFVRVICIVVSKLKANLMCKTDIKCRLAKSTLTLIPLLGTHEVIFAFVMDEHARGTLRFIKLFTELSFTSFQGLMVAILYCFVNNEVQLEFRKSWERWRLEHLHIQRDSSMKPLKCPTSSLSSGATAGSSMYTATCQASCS
protocolText: cell-based or functional assay
Where no end group is shown, it is not given here.
valueType: EC50 Relative to Val^8-GLP-1(7-37)OH (relative to Val^8-GLP-1(7-37)OH)

Some entries whose results are on file:
# binder, measuredResult
rows = [
    ("HVEGTFTSDWSSYLEEQAAKEFIAWLIKGRG-OH [Val^8-Trp^16-Glu^22-Ile^33-GLP-1(7-37)OH]", 4.1),
    ("HVEGTYTSDYSSYLEGQAAKEFIAWLVKGRG-OH [Val^8-Tyr^12-Tyr^16-GLP-1(7-37)OH]", 1.5),
]

A: HVEGTFTSDVSKYLEEQAAKEFIAWLVKGRG-OH [Val^8-Lys^18-Glu^22-GLP-1(7-37)OH]
B: HVEGTFTSDLSSYLEGQAAKEFIAWLVKGRG-OH [Val^8-Leu^16-GLP-1(7-37)OH]
C: HVEGTFTSDWSSYLEEQAVKEFIAWLVKGRG-OH [Val^8-Trp^16-Glu^22-Val^25-GLP-1(7-37)OH]
D: HVEGTFTSDVSSYLEGQALKEFIAWLVKGRG-OH [Val^8-Leu^25-GLP-1(7-37)OH]
Incoming: With regard to EC50 Relative to Val^8-GLP-1(7-37)OH (relative to Val^8-GLP-1(7-37)OH), arrange the entries in ascending order, please. Your task in answering is to list the labels in the requested order.
Outgoing: D, B, A, C
(D: 0.5, B: 1.1, A: 2.5, C: 4.4)
